subjectOfTest: human rI-domain (Homo sapiens, UniProt P11215)
Construct: Recombinant human and mouse I-domain proteins were made and purified as previously described; made in house
Sequence (P11215 150-328 limits assumed): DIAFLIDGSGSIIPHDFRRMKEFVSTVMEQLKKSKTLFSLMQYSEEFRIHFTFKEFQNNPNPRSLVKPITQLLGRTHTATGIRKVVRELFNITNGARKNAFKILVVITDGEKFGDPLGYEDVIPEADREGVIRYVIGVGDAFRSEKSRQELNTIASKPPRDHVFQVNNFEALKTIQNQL
measurementNotes: Repurposed drug SPR against human CR3 I-domain (single-cycle kinetics)
conditionDescription: 10 nM to 0.625 nM, read-out: KD, binding to human rI-domain
compounds and their reported Kd
The response must be a number in nM with no trailing unit.

* C[C@](N)(Cc1ccc(O)c(O)c1)C(=O)O [methyldopa] | 1.01

Value of measured Kd for the entry NC(=O)N1c2ccccc2C=Cc2ccccc21 [carbamazepine] : 2.12

---

subjectOfTest: G2 peptide (Homo sapiens, UniProt P11215)
Construct: corresponds to amino acids Arg197 to Pro211 of human CD11b
measurementNotes: SPR of glycans over immobilized biotin-AhxG2-streptavidin complex
parameterMeasured: pKd
Remember, pKd is on a log scale: it is -log10 of the molar concentration.

- OCC1OC(OC2C(O)C(O)OC(CO)C2O)C(O)C(O)C1O (centres unmarked): 6.76

Proceeding to the next molecule to report its pKd.
// assay G2 peptide (Homo sapiens, UniProt P11215), entry CO[C@H]1O[C@H](CO)[C@H](O)[C@H](O)[C@H]1O , pKd value = 6.93

---

molecules and their reported pKd
subjectOfTest: human rI-domain (Homo sapiens, UniProt P11215)
Construct: Recombinant human and mouse I-domain proteins were made and purified as previously described; made in house
measurementNotes: Surface plasmon resonance, immobilized human rI-domain
Assay type: binding
conditionDescription: synthetic glycans; NCDI = no interaction at any concentration between 0.0078 μM and 2 μM; read-out: KD, rI-domain
Remember, pKd is on a log scale: it is -log10 of the molar concentration.

Previously resolved entries follow.
- OC[C@H]1O[C@@H](O[C@H]2[C@H](O)[C@@H](O)[C@H](O)O[C@@H]2CO)[C@H](O)[C@@H](O)[C@H]1O [Lactose]: 6.93
- OC[C@H]1O[C@@H](O[C@H]2[C@H](O)[C@@H](O)[C@@H](O)O[C@@H]2CO)[C@H](O)[C@@H](O)[C@H]1O [αLactose]: 6.69
- CC(=O)NC1C(O)OC(CO)C(OC2OC(CO)C(O)C(OC3OC(CO)C(O)C(O)C3O)C2O)C1O (stereo not drawn) [Linear B-2 Trisaccharide]: 6.53

Value of measured pKd for the entry OCC1OC(OC2C(O)C(CO)OC(OC3C(CO)OC(OC4C(O)C(O)OC(CO)C4O)C(O)C3O)C2O)C(O)C(O)C1O (stereo not drawn) [α1-3,β1-4,α1-3 Galactotetraose] : 6.49

Value of measured pKd for the entry CC(=O)NC1C(O)OC(CO)C(OC2OC(CO)C(OC3OC(CO)C(O)C(O)C3O)C(O)C2O)C1O (stereo not drawn) [P1 Antigen] : 6.69

Value of measured pKd for the entry CO[C@H]1O[C@H](CO)[C@H](O)[C@H](O)[C@H]1O [Methyl-α-D-galactose] : 6.57

---

subjectOfTest: human rCR3 (integrin αMβ2) (Homo sapiens, UniProt P05107+P11215)
Construct: purchased R&D Systems
Sequence (P05107 23-700, one chain of several): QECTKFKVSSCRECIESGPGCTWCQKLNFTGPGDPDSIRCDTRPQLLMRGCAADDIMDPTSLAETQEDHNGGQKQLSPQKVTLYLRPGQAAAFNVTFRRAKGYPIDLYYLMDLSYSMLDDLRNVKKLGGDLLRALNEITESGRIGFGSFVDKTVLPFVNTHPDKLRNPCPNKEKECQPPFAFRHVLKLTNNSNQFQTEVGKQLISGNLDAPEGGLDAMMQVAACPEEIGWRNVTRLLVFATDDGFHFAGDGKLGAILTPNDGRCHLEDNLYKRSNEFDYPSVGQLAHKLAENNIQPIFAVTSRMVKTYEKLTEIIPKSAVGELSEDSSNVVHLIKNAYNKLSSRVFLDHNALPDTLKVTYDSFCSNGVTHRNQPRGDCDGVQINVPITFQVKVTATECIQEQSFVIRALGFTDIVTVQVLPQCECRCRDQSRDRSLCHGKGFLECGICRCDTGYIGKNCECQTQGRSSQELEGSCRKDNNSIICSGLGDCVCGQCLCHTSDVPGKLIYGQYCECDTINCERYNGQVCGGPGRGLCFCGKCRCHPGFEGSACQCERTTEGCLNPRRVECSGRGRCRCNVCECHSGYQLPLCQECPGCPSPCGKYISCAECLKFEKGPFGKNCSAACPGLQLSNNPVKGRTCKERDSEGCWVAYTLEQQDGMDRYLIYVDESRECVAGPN
measurementNotes: Surface plasmon resonance, immobilized human rCR3
Type: binding
conditionDescription: synthetic glycans; NCDI = no interaction at any concentration between 0.0078 μM and 2 μM; read-out: KD, rCR3
compounds and their reported pKd
Remember, pKd is on a log scale: it is -log10 of the molar concentration.

Previously resolved entries follow.
• CC(=O)NC1C(O)OC(CO)C(OC2OC(CO)C(O)C(OC3OC(CO)C(O)C(O)C3O)C2O)C1O (centres unmarked) [Linear B-2 Trisaccharide] = 7.35
• CC(=O)NC1C(O)OC(CO)C(OC2OC(CO)C(OC3OC(CO)C(O)C(O)C3O)C(O)C2O)C1O (centres unmarked) [P1 Antigen] = 7.32
• OC[C@H]1O[C@@H](O[C@H]2[C@H](O)[C@@H](O)[C@H](O)O[C@@H]2CO)[C@H](O)[C@@H](O)[C@H]1O = 6.86
• CO[C@H]1O[C@H](CO)[C@H](O)[C@H](O)[C@H]1O = 7.25

Proceeding to the next compound to report its pKd.
Value of measured pKd for the entry OC[C@H]1O[C@@H](O[C@H]2[C@H](O)[C@@H](O)[C@@H](O)O[C@@H]2CO)[C@H](O)[C@@H](O)[C@H]1O : 7.10
